Recorded values, source paper PMC10786919.

# run.description: Solubility assay (kinetic solubility, PBS pH 7)
# Assay type: physicochemical
# particulars: pH 7, aqueous buffer, kinetic from dmso stock, pH 7, PBS; read-out: Solubility
Positions of bridges follow the written chain, without caps; N, C: chain ends. Non-standard residues stand in square brackets, D forms with d. Residues, ends and D or L forms follow the SMILES beside them. Lys(N3) = [N-]=[N+]=NCCCC[C@H](N)C(=O)O; R8 = C=CCCCCCC[C@@](C)(N)C(=O)O; Cba = N[C@@H](CC1CCC1)C(=O)O; S5 = C=CCCC[C@](C)(N)C(=O)O; βAla = NCCC(=O)O
observable: solubility kinetic (µM)
The answer is to be given in µM; state only the numeric part.

Example entries and their recorded answers appear below.
1. CC(=O)N[C@@H](CCCCN=[N+]=[N-])C(=O)NCCC(=O)N[C@@H](CC(C)C)C(=O)N[C@H](C(=O)N[C@@H](Cc1ccccc1)C(=O)N[C@]1(C)CCCCCCC=CCCC[C@@](C)(C(=O)N[C@@H](CO)C(=O)N[C@@H](C)C(=O)N[C@@H](C)C(N)=O)NC(=O)[C@H](CC2CCC2)NC(=O)[C@H](CCC(N)=O)NC(=O)[C@H](C)NC(=O)[C@H](Cc2c[nH]c3ccccc23)NC(=O)[C@H](Cc2ccc(O)cc2)NC(=O)[C@H](CCC(=O)O)NC1=O)C(C)C [MP-258] (Ac-[Lys(N3)][βAla]LVF[R8]EYWAQ[Cba][S5]SAA-NH2; staple 6-13) | 79
2. CC(=O)N[C@@H](CCCNC(=N)N)C(=O)N[C@@H](CCCNC(=N)N)C(=O)NCCCCCC(=O)N[C@@H](CC(C)C)C(=O)N[C@H](C(=O)N[C@@H](Cc1ccccc1)C(=O)N[C@]1(C)CCCCCCC=CCCC[C@@](C)(C(=O)N[C@@H](CO)C(=O)N[C@@H](C)C(=O)N[C@@H](C)C(N)=O)NC(=O)[C@H](CC2CCC2)NC(=O)[C@H](CCC(N)=O)NC(=O)[C@H](C)NC(=O)[C@H](Cc2c[nH]c3ccccc23)NC(=O)[C@H](Cc2ccc(O)cc2)NC(=O)[C@H](CCC(=O)O)NC1=O)[C@@H](C)O | 6
3. CC(C)C[C@@H]1NC(=O)[C@H](C)NC(=O)[C@H](Cc2c[nH]c3ccccc23)NC(=O)[C@H](Cc2ccc(O)cc2)NC(=O)[C@H](CCC(=O)O)NC(=O)[C@](C)(NC(=O)[C@H](Cc2ccccc2)NC(=O)[C@H](CO)NC(=O)[C@@H](NC(=O)[C@H](CO)NC(=O)CNC(=O)[C@H](CO)NC(=O)[C@H](CCCCN=[N+]=[N-])NC(=O)[C@@H](N)CCC(=O)O)[C@@H](C)O)CCCCCCC=CCCC[C@@](C)(C(N)=O)NC(=O)[C@H](CC(C)C)NC1=O | 24

Consider the compound "CC(=O)N[C@@H](CCCCN)C(=O)NCCCCCC(=O)N[C@H](C(=O)N[C@@H](CO)C(=O)N[C@@H](Cc1ccccc1)C(=O)N[C@]1(C)CCCCCCC=CCCC[C@@](C)(C(=O)N[C@@H](CCC(=O)O)C(=O)N[C@@H](CC(N)=O)C(=O)N[C@@H](Cc2ccccc2)C(N)=O)NC(=O)[C@H](CC(C)C)NC(=O)[C@H](CC(C)C)NC(=O)[C@H](C)NC(=O)[C@H](Cc2c[nH]c3ccccc23)NC(=O)[C@H](Cc2ccc(O)cc2)NC(=O)[C@H](CCC(=O)O)NC1=O)[C@@H](C)O" and give its measured solubility kinetic. 74
